- Experimental System: NL20 human bronchial epithelial cells expressing human Z-AAT (Homo sapiens, UniProt P01009, E366K)
- Construct: expressed in transfected cells; host or cells: NL20 human bronchial epithelial cells (NL20-SI cell line), doxycycline added with compounds
- Sequence (P01009 25-418 E366K): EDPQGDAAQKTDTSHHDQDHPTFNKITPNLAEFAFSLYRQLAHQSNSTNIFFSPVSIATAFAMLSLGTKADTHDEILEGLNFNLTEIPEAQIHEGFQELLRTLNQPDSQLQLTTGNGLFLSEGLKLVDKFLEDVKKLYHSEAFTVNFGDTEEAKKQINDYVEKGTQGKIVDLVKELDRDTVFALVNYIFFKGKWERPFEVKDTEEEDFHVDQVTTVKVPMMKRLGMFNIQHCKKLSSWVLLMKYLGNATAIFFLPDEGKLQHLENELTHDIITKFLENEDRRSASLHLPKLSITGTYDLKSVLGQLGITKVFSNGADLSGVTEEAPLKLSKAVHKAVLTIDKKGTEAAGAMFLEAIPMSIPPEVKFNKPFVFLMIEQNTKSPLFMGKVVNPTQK
- Assay Text: AAT Function Assay (MSD Assay NL20-SI Cell Line)
- Type: cell-based
- Experimental Parameters: functionally active AAT in supernatant of NL20 cells expressing human Z-AAT, MSD readout; read-out: NL20 Func. (EC50)
- Source text: A. AAT Function Assay (MSD Assay NL20-SI Cell Line) Alpha-1 antitrypsin (AAT) is a SERPIN (serine protease inhibitor) that inactivates enzymes by binding to them covalently. This assay measured the amount of functionally active AAT in a sample in the presence of the disclosed compounds 1-342 by determining the ability of AAT to form an irreversible complex with human neutrophil Elastase (hNE). […]
Quick reference: EC50 of the listed items.

Previously resolved entries follow.
COCC(C)(C)c1c(-c2ccc(C(=O)NCC(C)(O)CO)cc2)c2cc3[nH]ncc3cc2n1-c1ccc(F)cc1 (centres unmarked) ... > 1 µM
OC(c1ccc(-c2c(C3CCOCC3)n(-c3ccc(F)cc3)c3cc4cn[nH]c4cc23)cc1)C(F)(F)F (racemic) [Compound 15] ... 0.4 to 1 µM
Cc1cc(-c2c(C3CCOCC3)n(-c3ccc(C(=O)NC4CNC(=O)C4)cc3)c3cc4[nH]ncc4cc23)ccn1 (centres unmarked) ... > 1 µM
CS(=O)(=O)c1c(-c2ccc(C(=O)O)cc2)c2cc3[nH]ncc3cc2n1-c1ccc(F)cc1 ... > 1 µM

Q. Entry `COc1nc(C(=O)O)ccc1-c1c(C(C)(C)CC#N)n(-c2ccc(F)cc2)c2cc3cn[nH]c3cc12` : reported EC50 = ?
A. > 1 µM
